system: DNAJB1-PRKACA expressing H33 cells; assay: Cell viability assay (CellTiter Glo 2), drug response; assay type: cell-based, human; settings: Homo sapiens; H33 cells, 72 hours; read-out: LC50 (IC50) value
Readout Name: IC50 (nM)

• CC1(C)CC[C@H](Nc2ncc(C(F)(F)F)c(-c3c[nH]c4c(P(C)(C)=O)c(C#N)ccc34)n2)CN1 [SY-5609] = 8.67

---

system: DNAJB1-PRKACA expressing H33 cells; assay: Cell viability assay (CellTiter Glo 2), drug response; format: cell-based, human; conditions: Homo sapiens; H33 cells, 120 hours; read-out: LC50 (IC50) value
Readout Name: IC50 (nM)

- CC1(C)CC[C@H](Nc2ncc(C(F)(F)F)c(-c3c[nH]c4c(P(C)(C)=O)c(C#N)ccc34)n2)CN1 [SY-5609]: 1.71
